Please provide measured State 3 respiration driven by glutamate/malate at 30XCmax for the entries that follow.
Tested on: isolated rat liver mitochondria
Test: Mitochondrial oxygen consumption (glutamate/malate or succinate driven, state 4 and state 3)
Type: biochemical
Details: 30XCmax; DMSO treated samples set as 1
Reply: number alone, nothing else.

Bench note, isolated rat liver mitochondria: COc1cc2c(Nc3ccc(Br)cc3F)ncnc2cc1OCC1CCN(C)CC1 , State 3 respiration driven by glutamate/malate at 30XCmax reads 0

Bench note, isolated rat liver mitochondria: O=C(c1ccc(F)c(F)c1Nc1ccc(I)cc1F)N1CC(O)([C@@H]2CCCCN2)C1 , State 3 respiration driven by glutamate/malate at 30XCmax reads 0

Bench note, isolated rat liver mitochondria: COc1cc2nccc(Oc3ccc(NC(=O)NC4CC4)c(Cl)c3)c2cc1C(N)=O , State 3 respiration driven by glutamate/malate at 30XCmax reads 0.76

Bench note, isolated rat liver mitochondria: CNC(=O)c1ccccc1Sc1ccc2c(/C=C/c3ccccn3)n[nH]c2c1 , State 3 respiration driven by glutamate/malate at 30XCmax reads 0

Bench note, isolated rat liver mitochondria: Cc1cc(Nc2ncc(Cl)c(Nc3ccccc3S(=O)(=O)C(C)C)n2)c(OC(C)C)cc1C1CCNCC1 , State 3 respiration driven by glutamate/malate at 30XCmax reads 0

Bench note, isolated rat liver mitochondria: Cc1nc(Nc2ncc(C(=O)Nc3c(C)cccc3Cl)s2)cc(N2CCN(CCO)CC2)n1 [dasatinib (free base)] , State 3 respiration driven by glutamate/malate at 30XCmax reads 0

Bench note, isolated rat liver mitochondria: N#CC[C@H](C1CCCC1)n1cc(-c2ncnc3[nH]ccc23)cn1 [ruxolitinib phosphate] , State 3 respiration driven by glutamate/malate at 30XCmax reads 0.54

Bench note, isolated rat liver mitochondria: CC(=O)c1c(C)c2cnc(Nc3ccc(N4CCNCC4)cn3)nc2n(C2CCCC2)c1=O.Cl [palbociclib hydrochloride] , State 3 respiration driven by glutamate/malate at 30XCmax reads 0

Bench note, isolated rat liver mitochondria: CCN(CC)CCNC(=O)c1c(C)[nH]c(/C=C2\C(=O)Nc3ccc(F)cc32)c1C [sunitinib malate] , State 3 respiration driven by glutamate/malate at 30XCmax reads 0

Bench note, isolated rat liver mitochondria: CC(C)(C)c1nc(-c2cccc(NS(=O)(=O)c3c(F)cccc3F)c2F)c(-c2ccnc(N)n2)s1 , State 3 respiration driven by glutamate/malate at 30XCmax reads 0.71

Bench note, isolated rat liver mitochondria: CCCS(=O)(=O)Nc1ccc(F)c(C(=O)c2c[nH]c3ncc(-c4ccc(Cl)cc4)cc23)c1F , State 3 respiration driven by glutamate/malate at 30XCmax reads 0

Bench note, isolated rat liver mitochondria: COc1cc(Nc2c(C#N)cnc3cc(OCCCN4CCN(C)CC4)c(OC)cc23)c(Cl)cc1Cl , State 3 respiration driven by glutamate/malate at 30XCmax reads 0

Bench note, isolated rat liver mitochondria: CN(C)C/C=C/C(=O)Nc1cc2c(Nc3ccc(F)c(Cl)c3)ncnc2cc1O[C@H]1CCOC1 [afatinib dimaleate] , State 3 respiration driven by glutamate/malate at 30XCmax reads 0

Bench note, isolated rat liver mitochondria: CC(=O)Nc1cccc(-n2c(=O)n(C3CC3)c(=O)c3c(Nc4ccc(I)cc4F)n(C)c(=O)c(C)c32)c1 , State 3 respiration driven by glutamate/malate at 30XCmax reads 0

Bench note, isolated rat liver mitochondria: COC(=O)c1ccc2c(c1)NC(=O)/C2=C(\Nc1ccc(N(C)C(=O)CN2CCN(C)CC2)cc1)c1ccccc1 , State 3 respiration driven by glutamate/malate at 30XCmax reads 0

----------
System: isolated rat liver mitochondria
Assay: Mitochondrial swelling (absorbance at 535 nm)
Assay type: biochemical
Details: 30XCmax; difference in signal between KI and DMSO treated samples at the end of experiments
Please provide measured Swelling 30XCmax for the entries that follow.
Reply: number alone, nothing else.

Swelling 30XCmax reported for this compound O=C(c1ccc(F)c(F)c1Nc1ccc(I)cc1F)N1CC(O)([C@@H]2CCCCN2)C1 : 0

Swelling 30XCmax reported for this compound COc1cc2nccc(Oc3ccc(NC(=O)C4(C(=O)Nc5ccc(F)cc5)CC4)cc3)c2cc1OC [cabozantinib malate] : 0.46

Swelling 30XCmax reported for this compound N#CC[C@H](C1CCCC1)n1cc(-c2ncnc3[nH]ccc23)cn1 [ruxolitinib phosphate] : 0

Swelling 30XCmax reported for this compound Cc1nc(Nc2ncc(C(=O)Nc3c(C)cccc3Cl)s2)cc(N2CCN(CCO)CC2)n1 [dasatinib (free base)] : 0

----------
Tested on: isolated rat liver mitochondria
Test: Mitochondrial oxygen consumption (glutamate/malate or succinate driven, state 4 and state 3); as to State 3 respiration driven by succinate at 10XCmax: key: 0 indicates that the drug had no effects (negative)
Format: biochemical
Conditions: 10XCmax; DMSO treated samples set as 1
Experimental: Rats were anesthetized by an intraperitoneal injection of Nembutal and the liver perfused with PBS to remove the blood. The liver was then cut into small pieces and homogenized using a Dounce type homogenizer in the ice-cold isolation buffer (IB) containing 200 mM sucrose, 10 mM Tris-MOPS, 1 mM EGTA (pH 7.4). The sample was then centrifuged at 600g for 10 min. […] The proteins were blotted to PVDF membranes and detected using antibodies against GAPDH, ATP5A, UQCRC2, SDHB, and NDUFB8. […]
Please provide measured State 3 respiration driven by succinate at 10XCmax for the entries that follow.
Reply: number alone, nothing else.

State 3 respiration driven by succinate at 10XCmax reported for this compound COc1cc2ncnc(Nc3ccc(F)c(Cl)c3)c2cc1OCCCN1CCOCC1 [Gefitinib] : 0

State 3 respiration driven by succinate at 10XCmax reported for this compound CNC(=O)c1cc(Oc2ccc(NC(=O)Nc3ccc(Cl)c(C(F)(F)F)c3)c(F)c2)ccn1 [Regorafenib] : 0

State 3 respiration driven by succinate at 10XCmax reported for this compound COc1cc(Nc2c(C#N)cnc3cc(OCCCN4CCN(C)CC4)c(OC)cc23)c(Cl)cc1Cl [Bosutinib] : 0

State 3 respiration driven by succinate at 10XCmax reported for this compound COc1cc2c(Nc3ccc(Br)cc3F)ncnc2cc1OCC1CCN(C)CC1 [Vandetanib] : 0

----------
System: isolated rat liver mitochondria
Settings: rat, 30 min, pH 7.4
MEASUREMENT_LABEL: lowest concentration causing cytochrome c release
Note: state the figure and append the unit.

lowest concentration causing cytochrome c release reported for this molecule C[C@@H]1CCN(C(=O)CC#N)C[C@@H]1N(C)c1ncnc2[nH]ccc12 [Tofacitinib] : 100 fold Cmax

lowest concentration causing cytochrome c release reported for this molecule N#CC[C@H](C1CCCC1)n1cc(-c2ncnc3[nH]ccc23)cn1 [Ruxolitinib] : 50 fold Cmax

lowest concentration causing cytochrome c release reported for this molecule Cc1cc(Nc2ncc(Cl)c(Nc3ccccc3S(=O)(=O)C(C)C)n2)c(OC(C)C)cc1C1CCNCC1 [Ceritinib] : 50 fold Cmax

lowest concentration causing cytochrome c release reported for this molecule COc1cc2c(Nc3ccc(Br)cc3F)ncnc2cc1OCC1CCN(C)CC1 [Vandetanib] : 100 fold Cmax

lowest concentration causing cytochrome c release reported for this molecule C=CC(=O)Nc1cc(Nc2nccc(-c3cn(C)c4ccccc34)n2)c(OC)cc1N(C)CCN(C)C [Osimertinib] : 100 fold Cmax

----------
Molecular target: RCC II (Rattus norvegicus, UniProt P21913+Q641Z9+Q6PCT8+Q920L2)
Construct: Submitochondrial particles were prepared by subjecting the intact mitochondria to three successive freeze–thaw cycles; from tissue; host or cells: rat liver mitochondria, used as submitochondrial particles
Sequence (Q920L2 35-656): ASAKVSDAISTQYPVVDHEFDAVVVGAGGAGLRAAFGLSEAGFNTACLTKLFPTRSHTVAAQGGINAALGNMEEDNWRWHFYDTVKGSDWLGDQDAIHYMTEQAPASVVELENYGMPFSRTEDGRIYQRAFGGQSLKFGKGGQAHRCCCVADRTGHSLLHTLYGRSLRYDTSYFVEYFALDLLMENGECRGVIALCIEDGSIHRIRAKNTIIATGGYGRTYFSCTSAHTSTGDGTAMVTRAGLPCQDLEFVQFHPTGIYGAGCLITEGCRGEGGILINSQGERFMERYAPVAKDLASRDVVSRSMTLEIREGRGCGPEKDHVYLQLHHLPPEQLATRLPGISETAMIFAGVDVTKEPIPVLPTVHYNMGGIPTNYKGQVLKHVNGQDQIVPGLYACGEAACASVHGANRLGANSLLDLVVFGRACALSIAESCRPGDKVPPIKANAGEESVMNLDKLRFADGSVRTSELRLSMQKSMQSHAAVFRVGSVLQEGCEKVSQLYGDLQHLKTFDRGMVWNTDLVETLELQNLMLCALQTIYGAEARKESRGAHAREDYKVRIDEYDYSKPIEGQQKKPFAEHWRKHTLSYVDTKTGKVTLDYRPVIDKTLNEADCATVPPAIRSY
Sequence (P21913 31-282): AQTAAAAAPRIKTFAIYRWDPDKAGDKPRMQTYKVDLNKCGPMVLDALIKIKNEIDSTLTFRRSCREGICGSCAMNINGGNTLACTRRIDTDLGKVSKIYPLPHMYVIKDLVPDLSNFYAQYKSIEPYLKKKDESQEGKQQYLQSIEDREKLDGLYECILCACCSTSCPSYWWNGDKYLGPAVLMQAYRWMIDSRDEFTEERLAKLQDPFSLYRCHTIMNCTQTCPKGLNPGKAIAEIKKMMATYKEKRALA
Sequence (Q641Z9 1-169): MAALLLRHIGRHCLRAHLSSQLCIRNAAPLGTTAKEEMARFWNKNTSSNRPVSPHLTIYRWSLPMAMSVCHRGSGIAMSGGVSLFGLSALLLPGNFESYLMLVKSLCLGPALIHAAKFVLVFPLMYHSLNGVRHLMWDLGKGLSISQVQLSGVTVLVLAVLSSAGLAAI
Sequence (Q6PCT8 57-159): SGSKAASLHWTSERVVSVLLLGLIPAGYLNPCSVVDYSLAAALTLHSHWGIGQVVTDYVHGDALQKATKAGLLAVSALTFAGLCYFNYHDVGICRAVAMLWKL
Experiment: RCC II activity in submitochondrial particles
Type: biochemical
Parameters: key: activity relative to DMSO-treated controls (control set as 1 = 100%)
Conditions: 2.5XCmax; relative to DMSO treated samples
Where a name gives a salt, the structure may show the parent alone.
MEASUREMENT_LABEL: RCC II at 2.5XCmax
Reply: number alone, nothing else.

RCC II at 2.5XCmax reported for this compound CS(=O)(=O)CCNCc1ccc(-c2ccc3ncnc(Nc4ccc(OCc5cccc(F)c5)c(Cl)c4)c3c2)o1 [lapatinib ditosylate monohydrate] : 0

RCC II at 2.5XCmax reported for this compound CNC(=O)c1ccccc1Sc1ccc2c(/C=C/c3ccccn3)n[nH]c2c1 [Axitinib] : 0

RCC II at 2.5XCmax reported for this compound C[C@@H]1CCN(C(=O)CC#N)C[C@@H]1N(C)c1ncnc2[nH]ccc12 [tofacitinib citrate] : 0

RCC II at 2.5XCmax reported for this compound Cc1cn(-c2cc(NC(=O)c3ccc(C)c(Nc4nccc(-c5cccnc5)n4)c3)cc(C(F)(F)F)c2)cn1 [Nilotinib] : 0

RCC II at 2.5XCmax reported for this compound C#Cc1cccc(Nc2ncnc3cc(OCCOC)c(OCCOC)cc23)c1 [erlotinib hydrochloride] : 0

RCC II at 2.5XCmax reported for this compound CNC(=O)c1cc(Oc2ccc(NC(=O)Nc3ccc(Cl)c(C(F)(F)F)c3)cc2)ccn1 [sorafenib tosylate] : 0

RCC II at 2.5XCmax reported for this compound CCCS(=O)(=O)Nc1ccc(F)c(C(=O)c2c[nH]c3ncc(-c4ccc(Cl)cc4)cc23)c1F [Vemurafenib] : 0

----------
System: isolated rat liver mitochondria
Settings: 5XCmax; positive control alamethicin treated samples
MEASUREMENT_LABEL: Cytochrome c release 5XCmax

Bench note, isolated rat liver mitochondria: COC(=O)c1ccc2c(c1)NC(=O)/C2=C(\Nc1ccc(N(C)C(=O)CN2CCN(C)CC2)cc1)c1ccccc1 , Cytochrome c release 5XCmax reads 0

Bench note, isolated rat liver mitochondria: C=CC(=O)Nc1cc(Nc2nccc(-c3cn(C)c4ccccc34)n2)c(OC)cc1N(C)CCN(C)C.CS(=O)(=O)O [osimertinib mesylate] , Cytochrome c release 5XCmax reads 0

Bench note, isolated rat liver mitochondria: COc1cc(Nc2c(C#N)cnc3cc(OCCCN4CCN(C)CC4)c(OC)cc23)c(Cl)cc1Cl , Cytochrome c release 5XCmax reads 0

Bench note, isolated rat liver mitochondria: O=C(c1ccc(F)c(F)c1Nc1ccc(I)cc1F)N1CC(O)([C@@H]2CCCCN2)C1 , Cytochrome c release 5XCmax reads 0

Bench note, isolated rat liver mitochondria: Cc1cc(Nc2ncc(Cl)c(Nc3ccccc3S(=O)(=O)C(C)C)n2)c(OC(C)C)cc1C1CCNCC1 , Cytochrome c release 5XCmax reads 0
